The measurements presented in this section are drawn from patent US20250215010A1.

biological target: MMP9 (Homo sapiens); assay: MMP-9 colorimetric inhibition assay (Enzo kit BML-AK410); format: biochemical; conditions: thiopeptide substrate, absorbance 415 nm; read-out: MMP 9 IC50 class
Sequence (P14780 94-707): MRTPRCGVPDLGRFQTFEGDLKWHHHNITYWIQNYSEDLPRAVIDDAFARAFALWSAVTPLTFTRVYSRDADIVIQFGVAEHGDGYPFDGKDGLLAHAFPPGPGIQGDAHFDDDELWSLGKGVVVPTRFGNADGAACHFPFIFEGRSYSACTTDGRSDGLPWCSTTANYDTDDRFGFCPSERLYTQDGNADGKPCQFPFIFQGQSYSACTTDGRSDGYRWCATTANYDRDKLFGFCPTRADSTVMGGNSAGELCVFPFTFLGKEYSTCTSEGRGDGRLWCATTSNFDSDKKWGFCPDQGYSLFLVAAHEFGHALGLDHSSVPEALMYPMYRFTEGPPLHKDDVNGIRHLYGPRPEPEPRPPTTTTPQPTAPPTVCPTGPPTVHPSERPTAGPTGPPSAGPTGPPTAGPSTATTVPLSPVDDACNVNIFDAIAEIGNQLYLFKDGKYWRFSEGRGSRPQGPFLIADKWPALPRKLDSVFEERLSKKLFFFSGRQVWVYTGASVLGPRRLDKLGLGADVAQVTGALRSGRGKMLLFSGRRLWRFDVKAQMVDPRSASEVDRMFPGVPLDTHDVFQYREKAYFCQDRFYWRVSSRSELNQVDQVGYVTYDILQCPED
Measurement label: IC50

Take a look at these entries with their results.
1. COCCOC(=O)N1[C@@H]2CC[C@H]1[C@H](C(=O)NO)N(S(=O)(=O)c1ccc(Oc3nc4cc(F)ccc4o3)c(F)c1)C2 ... 1000 to 10000 nM
2. COCCOC(=O)N1[C@@H]2CC[C@H]1[C@H](C(=O)NO)N(S(=O)(=O)c1ccc(Oc3ccc(F)c(F)c3)nc1)C2 ... < 50 nM
3. COCCOC(=O)N1[C@@H]2CC[C@H]1[C@H](C(=O)NO)N(S(=O)(=O)c1ccc(-c3cccc(F)c3)nc1)C2 ... 1000 to 10000 nM
4. COCCOC(=O)N1[C@@H]2CC[C@H]1[C@H](C(=O)NO)N(S(=O)(=O)c1ccc(OC3CCOCC3)nc1)C2 ... < 50 nM

Input line: Enter reported IC50 observed with MMP9 (Homo sapiens) for CC(C)(C)C(=O)N1[C@@H]2CC[C@H]1[C@H](C(=O)NO)N(S(=O)(=O)c1ccc(Oc3ccc(OC(F)(F)F)cc3)nc1)C2
Output line: < 50 nM

Input line: Quick one: CCn1cc(Oc2ccc(S(=O)(=O)N3C[C@H]4CC[C@@H]([C@@H]3C(=O)NO)N4C(=O)OCCOC)cn2)cn1
Output line: < 50 nM
